The measurements presented in this section are drawn from PubChem BioAssay (EPA / NIEHS).

Assay: CCTE_Deisenroth_AIME_384WELL_CTox_Inactive: Cytotoxicity Assessment (CTOX) in CCTE's 384-well Estrogen Receptor Transactivation Assay without AIME metabolic competence (metabolism negative), Deisenroth Lab (AID 2284039);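 also: cell viability via live-cell protease substrate cleaved to fluorescent probe; cells exposed 24 h to medium preincubated 2 h with alginate-water beads without S9; loss of fluorescence signal means loss of viability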
Inconclusive results are not listed. Active and inactive are the calls of the source. The calls were made as follows: active = hit-call score of the fitted dose curve at least 0.9, where 1 is the maximum; inconclusive = response in the unintended direction; inactive = score below 0.9.
The categories you may choose from are yes (1) (active), no (0) (inactive)

QUERY: In this assay, the call recorded for CCCCCCCCCCCCCCCC[N+](C)(C)C was what?
RESULT: yes (1)

QUERY: How did this test come out for Nc1ccccc1 ?
RESULT: no (0)

QUERY: Please state the recorded outcome for this compound: CCOP(O)OCC
RESULT: no (0)

QUERY: How was Cc1ccc(C)c2ccccc12 classified in this test?
RESULT: no (0)

QUERY: Which outcome did this test record for the compound O=S(=O)(O)OOS(=O)(=O)O ?
RESULT: no (0)

* * *

Experiment: Tanguay_ZF_120hpf_PFIN_legacy: (Legacy) Oregon State University Tanguay Lab 120 Hour Post-fertilization zebrafish Assay for Pectoral Fin Malformation (AID 2283648);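 also: each larva judged yes or no for fin defect by brightfield with dead larvae skipped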
Records with an inconclusive call do not appear. The source made the active and inactive calls. How the source made its calls: active means hit-call score of the fitted dose curve at least 0.9, where 1 is the maximum; inconclusive means response in the unintended direction; inactive means score below 0.9.
Outcome measure: outcome

N#CCCCCC#N    inactive
O=C(CCl)c1ccccc1    inactive
O=[N+]([O-])c1ccc(Cl)cc1    inactive
c1cc[n+]2c(c1)-c1cccc[n+]1CC2    inactive

* * *

Read-out: Interleukin-1 alpha (IL1a), IL1A (gene 3552)
Assay: BSK_LPS_IL1a: BioMAP Diversity Plus: LPS Assay for Interleukin-1 alpha (IL1a) Biomarker Activity (AID 2283080)
Details: primary human HUVEC with PBMC; actives raise or lower the signal
Procedure: BSK_LPS is a cell-based, multiplexed-readout assay that uses umbilical vein endothelium and peripheral blood mononuclear cells, a human vascular primary cell co-culture, with measurements taken at 24 hours after chemical dosing in a 96-well plate.BSK_LPS_IL1a is an assay component measured in the BSK_LPS assay. It measures IL-a antibody related to regulation of gene expression using ELISA technology.Data from the assay component BSK_LPS_IL1a was analyzed into 1 assay endpoint. […]
Active and inactive are the calls of the source. The calls were made as follows: active = hit-call score of the fitted dose curve at least 0.9, where 1 is the maximum; inactive = score below 0.9.
Response enum: Y (active), N (inactive)

QUERY: For Cc1ccc(OP(=O)(Oc2ccc(C)cc2)Oc2ccc(C)cc2)cc1 (tested in a mixture with another compound) , which call appears in the assay record?
RESULT: Y

QUERY: Short answer needed: outcome of this test for CCc1cc(C)cc(CC)c1-c1c(OC(=O)C(C)(C)C)n2n(c1=O)CCOCC2 ?
RESULT: N

QUERY: For this compound, state the assay outcome: N#CCCCCC#N
RESULT: N

QUERY: Call for entry CC(=O)/C=C/c1ccccc1 :
RESULT: Y

QUERY: // param item: COCC(=O)N(c1c(C)cccc1C)N1CCOC1=O ; yields the recorded call
RESULT: N

QUERY: For CCCC[N+](CCCC)(CCCC)CCCC , which call appears in the assay record?
RESULT: N

QUERY: I would be grateful if you could indicate the recorded call for O=P1(NCCCl)OCCCN1CCCl (configuration not stated) .
RESULT: N

* * *

Read-out: Monocyte Chemoattractant Protein-1 (MCP1), CCL2 (gene 6347)
Assay: BSK_SAg_MCP1: BioMAP Diversity Plus: SAg Assay for Monocyte Chemoattractant Protein-1 (MCP1) Biomarker Activity (AID 2283090)
Conditions: primary human HUVEC with PBMC; actives raise or lower the signal
Calls of active or inactive are those of the source. Rule for the calls: active = hit-call score of the fitted dose curve at least 0.9, where 1 is the maximum; inactive = score below 0.9.
Bench note: report the call from yes (1) for active, no (0) for inactive

QUERY: Field: outcome | Entry: CC(C)(c1cc(Cl)c(O)c(Cl)c1)c1cc(Cl)c(O)c(Cl)c1
RESULT: yes (1)

QUERY: Test call, this compound: O=[N+]([O-])c1ccc(Cl)cc1
RESULT: no (0)

QUERY: So what was the verdict on O=C(CCl)c1ccccc1 in this test?
RESULT: yes (1)

QUERY: Record request — test call for CC(=O)/C=C/c1ccccc1
RESULT: no (0)

QUERY: Called result for CC(C)(C)C(=O)CCl
RESULT: no (0)

QUERY: Please share the test call associated with C=CC(=O)OCC(CC)CCCC (stereo not drawn) .
RESULT: no (0)

QUERY: Please share the test call associated with O=[N+]([O-])O .
RESULT: no (0)

QUERY: What outcome does the record of this test show for CC(C)(C)C(O)C(Oc1ccc(-c2ccccc2)cc1)n1cncn1 (stereo not drawn) ?
RESULT: no (0)

QUERY: Test call for this compound, please: Cc1ccc(OP(=O)(Oc2ccc(C)cc2)Oc2ccc(C)cc2)cc1 (tested in a mixture with another compound)
RESULT: yes (1)

QUERY: Dear colleague, could you share the recorded outcome for N#CCCCCC#N when you have a moment?
RESULT: no (0)

QUERY: Give the logged outcome of this assay for the following compound: Clc1ccc(-c2ccccc2)cc1
RESULT: no (0)

QUERY: In this assay, the call recorded for O=P1(NCCCl)OCCCN1CCCl (stereo not drawn) was what?
RESULT: no (0)

QUERY: Record request — test call for CNC(=O)Oc1cc(C)c(SC)c(C)c1
RESULT: no (0)

* * *

Read-out: Actin alpha 1 (ACTA1), ACTA1 (gene 58)
Experiment: BSK_MyoF_ACTA1: BioMAP Diversity Plus: MyoF Assay for Actin alpha 1 (ACTA1) Biomarker Activity (AID 2284244)
Conditions: primary human lung fibroblasts
Method: BSK_MyoF is a cell-based, multiplexed-readout assay that uses lung fibroblasts, […], with measurements taken at 24 hours after chemical dosing in a microplate: 96-well plate.BSK_MyoF_ACTA1 is an assay component measured in the BSK_MyoF assay. […] The levels of cell surface (or secreted, indicated by the prefix "s") biomarker endpoints were measured by ELISA. […] Plates were read after 6 h.
Activity calls are given as the source filed them. How the source made its calls: active means hit-call score of the fitted dose curve at least 0.9, where 1 is the maximum; inactive means score below 0.9.
Field 'call' accepts Yes (active), No (inactive)

QUERY: What did this assay record as the result for CC(C)COP(=O)(OCC(C)C)OCC(C)C ?
RESULT: No

QUERY: Please let me know the test result on file for O=C1C(Cl)=C(Cl)C(=O)C(Cl)=C1Cl .
RESULT: Yes

QUERY: Name the outcome recorded for O=c1c2ccccc2c(=O)c2c1cc(Cl)c1[nH]c3c([nH]c12)c(Cl)cc1c(=O)c2ccccc2c(=O)c13 in the assay.
RESULT: No

QUERY: // param item: O=P1(NCCCl)OCCCN1CCCl (stereo not given) ; yields the recorded call
RESULT: No

QUERY: Each molecule tested received a call. Report the one for CC(C)(C)C(O)C(Oc1ccc(-c2ccccc2)cc1)n1cncn1 (stereo not given) .
RESULT: Yes

* * *

Test: CCTE_Mundy_HCI_hN2_NOG_NeuriteLength: CCTE's Neurite Outgrowth Assay in human hN2 cells for Neurite Length, Mundy Lab (AID 2284220)
Inconclusive results are not listed. Active and inactive are the calls of the source. Rule for the calls: active = hit-call score of the fitted dose curve at least 0.9, where 1 is the maximum; inconclusive = response in the unintended direction; inactive = score below 0.9.
Pick from 1 (yes) = active, 0 (no) = inactive when you respond.

QUERY: Write down the call the test reported for this compound. Item: C[n+]1ccc(-c2cc[n+](C)cc2)cc1
RESULT: 0 (no)

QUERY: Which outcome was assigned to C=CCN1CC[C@]23c4c5ccc(O)c4O[C@H]2C(=O)CC[C@@]3(O)[C@H]1C5 in this test?
RESULT: 0 (no)

QUERY: Just curious, what result did CCC[CH2][Sn]([CH2]CCC)([CH2]CCC)[O][Sn]([CH2]CCC)([CH2]CCC)[CH2]CCC get here?
RESULT: 1 (yes)

QUERY: Please share the test call associated with CN[C@]1(c2ccccc2Cl)CCCCC1=O .
RESULT: 0 (no)

QUERY: Dear all, I need the recorded test outcome for CN1C(=O)CN=C(c2ccccc2)c2cc(Cl)ccc21 , thank you.
RESULT: 0 (no)

* * *

Test: ATG_VDRE_CIS: Attagene CIS-FACTORIAL HepG2 Assay for human Vitamin D Receptor Element (VDRE) (AID 2282968)
Conditions: HepG2 VDRE cis-reporter transcription, actives raise or lower the signal
Active and inactive are the calls of the source. The calls were made as follows: active = hit-call score of the fitted dose curve at least 0.9, where 1 is the maximum; inactive = score below 0.9.
Parameter call: string, one of true (1) for active, false (0) for inactive

QUERY: Called result for CC(C)(O)C#N
RESULT: false (0)

QUERY: Fill in: this test's call for [CH3][Sn]([CH3])([Cl])[Cl] is ___
RESULT: false (0)

QUERY: Look up the recorded call for Nc1ccccc1 in this test.
RESULT: false (0)

QUERY: Dear colleague, could you share the recorded outcome for O=C(O)CCCc1ccc(N(CCCl)CCCl)cc1 when you have a moment?
RESULT: false (0)

QUERY: Fill in: this test's call for Nc1ccc(-c2ccc(N)c(N)c2)cc1N is ___
RESULT: false (0)

QUERY: Could you please tell me the result logged for CCC1CCC(=O)O1 (stereo unspecified) in this assay?
RESULT: false (0)

QUERY: Recorded test outcome, item O=S(=O)(O)OOS(=O)(=O)O
RESULT: false (0)

QUERY: What call does the record list for O=[N+]([O-])c1ccc(Cl)cc1 ?
RESULT: false (0)

QUERY: In this assay, the call recorded for ClCC(Cl)Cl was what?
RESULT: false (0)

QUERY: I'd appreciate the recorded outcome for CC1(C)CC(=O)CC(C)(C)N1[O] from this test.
RESULT: false (0)

QUERY: Hi, sorry to bother you, what did the test record for Nc1ccccc1C(=O)OCCc1ccccc1 ?
RESULT: true (1)

QUERY: Write down the call the test reported for this molecule. Item: CCOP(O)OCC
RESULT: false (0)

QUERY: Hi team, can someone confirm the assay call for CC1(C)C(=O)NC(=O)NC1=O ?
RESULT: false (0)

QUERY: Outcome logged for CCC(C)(C)O in this assay:
RESULT: false (0)

QUERY: Recorded test outcome, item CCCCCCC1CCOC1=O (stereo unspecified)
RESULT: false (0)

QUERY: Please let me know the test result on file for CC(C)CCCCCCCOC(=O)c1ccccc1C(=O)OCCCCCCCC(C)C .
RESULT: false (0)
